Assay system: PIM-1 kinase (Homo sapiens)
Construct: purchased Cell Signaling Technology Inc., Boston, USA
Sequence (P11309 whole entry): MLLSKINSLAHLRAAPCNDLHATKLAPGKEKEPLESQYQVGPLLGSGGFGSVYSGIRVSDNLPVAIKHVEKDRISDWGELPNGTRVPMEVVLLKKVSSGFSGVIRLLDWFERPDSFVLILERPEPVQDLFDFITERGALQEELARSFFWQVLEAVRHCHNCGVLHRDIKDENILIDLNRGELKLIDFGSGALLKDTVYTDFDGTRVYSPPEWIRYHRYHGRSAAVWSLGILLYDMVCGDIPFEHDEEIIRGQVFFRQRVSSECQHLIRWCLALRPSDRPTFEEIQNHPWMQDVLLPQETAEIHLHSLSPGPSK
Assay procedure: In vitro assay for PIM-1 kinase inhibition (PIM-1 Kinase Assay Kit, colorimetric ELISA readout)
Assay type: biochemical
Cond: test compound at final concentration 100 µM; normalized to positive control (no test compound) = 100 % activity; 1.5 ng (A-D series) or 2.5 ng (E series) PIM-1 kinase, 200 µM ATP
Reported endpoint: % remaining PIM-1 kinase activity (%)

[A] COc1ccc(S(=O)(=O)N2CCCNCC2)c2ccncc12 [E, reference compound]
[B] COc1ccc(S(=O)(=O)N2CCCNCC2)c2ccnc(C)c12
[C] O=S(=O)(c1cccc2cnccc12)N1CCCNCC1 [F, Fasudil, reference compound]
Arrange by % remaining PIM-1 kinase activity, high to low. Give your ranking as a list of the labels in the requested order.
C, A, B

[a] COc1ccc(S(=O)(=O)N2CCNCC2)c2ccnc(Cl)c12
[b] COc1ccc(S(=O)(=O)N2CCCNCC2)c2ccnc(Cl)c12 [G, 1-chloro-8-methoxy-Fasudil, reference compound]
Consider entries a and b . Which has the numerically lower % remaining PIM-1 kinase activity? To answer, give the label that identifies your chosen option.
b
